Listed compounds paired with reported viability at 24 h, 10 µM
- RUN DESCRIPTION: Cell Titer Blue viability (cytotoxicity) assay
- Type: cell-based, human
- PARTICULARS: human
PARAMETER MEASURED: viability at 24 h, 10 µM

>  <COMPOUND>
O=C(Nc1ccc(S(F)(F)(F)(F)F)cc1)c1ccc(Sc2ccc(O)cc2)cc1 [Compound 11e]

>  <PARAMETER MEASURED>
viability at 24 h, 10 µM

>  <RESULT VALUE>
49.5%

$$$$
>  <COMPOUND>
O=C(Nc1ccccc1C(F)(F)F)c1ccc([S+]([O-])c2ccc(O)cc2)cc1 (centres unmarked) [Compound 14i]

>  <PARAMETER MEASURED>
viability at 24 h, 10 µM

>  <RESULT VALUE>
104%

$$$$
>  <COMPOUND>
O=C(Nc1ccc(C(F)(F)F)cc1)c1ccc(Sc2ccc(O)cc2)cc1 [Compound 11g]

>  <PARAMETER MEASURED>
viability at 24 h, 10 µM

>  <RESULT VALUE>
66.3%

$$$$
>  <COMPOUND>
O=C(Nc1cc(C(F)(F)F)cc(C(F)(F)F)c1)c1ccc(S(=O)(=O)c2ccc(O)cc2)cc1 [Compound 13c]

>  <PARAMETER MEASURED>
viability at 24 h, 10 µM

>  <RESULT VALUE>
65.7%

$$$$
>  <COMPOUND>
O=C(Nc1cccc(C(F)(F)F)c1)c1ccc(Sc2cccc(C(F)(F)F)c2)cc1 [Compound 12h]

>  <PARAMETER MEASURED>
viability at 24 h, 10 µM

>  <RESULT VALUE>
112%

$$$$
>  <COMPOUND>
O=C(Nc1ccc(S(F)(F)(F)(F)F)cc1)c1ccc(S(=O)(=O)c2ccc(O)cc2)cc1 [Compound 13e]

>  <PARAMETER MEASURED>
viability at 24 h, 10 µM

>  <RESULT VALUE>
38.4%

$$$$
>  <COMPOUND>
O=C(Nc1ccc([N+](=O)[O-])c(C(F)(F)F)c1)c1ccc(S(=O)(=O)c2ccc(O)cc2)cc1 [Compound 13b]

>  <PARAMETER MEASURED>
viability at 24 h, 10 µM

>  <RESULT VALUE>
82.3%

$$$$
>  <COMPOUND>
O=C(Nc1ccccc1C(F)(F)F)c1ccc(Sc2ccc(O)cc2)cc1 [Compound 11i]

>  <PARAMETER MEASURED>
viability at 24 h, 10 µM

>  <RESULT VALUE>
111%

$$$$
>  <COMPOUND>
O=C(Nc1ccc([N+](=O)[O-])c(C(F)(F)F)c1)c1ccc(Sc2ccc(O)cc2)cc1 [Compound 11b]

>  <PARAMETER MEASURED>
viability at 24 h, 10 µM

>  <RESULT VALUE>
65.4%

$$$$
>  <COMPOUND>
O=C(Nc1cccc(C(F)(F)F)c1)c1ccc(S(=O)(=O)c2ccc(O)cc2)cc1 [Compound 13h]

>  <PARAMETER MEASURED>
viability at 24 h, 10 µM

>  <RESULT VALUE>
87.6%

$$$$
>  <COMPOUND>
O=C(Nc1ccc(C(F)(F)F)cc1)c1ccc(S(=O)(=O)c2ccc(O)cc2)cc1 [Compound 13g]

>  <PARAMETER MEASURED>
viability at 24 h, 10 µM

>  <RESULT VALUE>
61.8%

$$$$
